tested-system: T1, cyno CCR8 (cynomolgus monkey, UniProt O97665 1-356 (rhesus entry))
T1 construct: also called cynomolgus CCR8; cyCCR8
T1 sequence (O97665 other isoform, or with tags, fused parts or gaps): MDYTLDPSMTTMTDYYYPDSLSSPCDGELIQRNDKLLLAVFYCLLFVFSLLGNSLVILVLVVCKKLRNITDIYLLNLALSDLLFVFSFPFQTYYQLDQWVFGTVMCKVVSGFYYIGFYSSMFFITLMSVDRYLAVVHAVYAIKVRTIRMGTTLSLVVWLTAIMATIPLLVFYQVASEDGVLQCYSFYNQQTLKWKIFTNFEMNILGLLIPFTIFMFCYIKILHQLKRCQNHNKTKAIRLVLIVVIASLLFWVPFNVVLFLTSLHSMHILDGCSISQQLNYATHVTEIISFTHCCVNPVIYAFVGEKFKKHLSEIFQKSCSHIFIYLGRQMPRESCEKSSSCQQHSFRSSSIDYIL
experimental-details: flow cytometry titration on CHO cells stably expressing cyno CCR8 (14 h, room temperature)
quantity-name: pEC50
Numbers only, as −log10 of the molar value.

Record excerpt, results attached:
Would you mind telling me what pEC50 value was observed for anti-CCR8 1889 S12P.I29V.Y58A (PVA) (antibody, V domains shown, It is put together from the printed names of the heavy chain variant (Y58A) and the light chain variant (S12P.I29V)) VH: EVQLLESGGGLVQPGGSLRLSCAASGIDLSTYAMGWVREAPGKGLEWVGLIHRSGRTAYATWAKGRFTISKDSSKNTLYLQMNSLRAEDTAVYYCTRSYPDYSATASIWGQGTTVTVSS VL: DIQVTQSPSSLPASVGDRVTITCQASENVANALAWYQKKPGKPPKFLIYGASNLASGVPSRFSGSGSGTDFTFTISSLQPEDIATYYCQQAYYGNSFVEGTFGGGTKVEIK ?
8.21

Given anti-CCR8 1889 WT antibody (parent) (antibody, V domains shown, The antibody has human IgG constant regions (detected with anti-human IgG)) VH: EVQLLESGGGLVQPGGSLRLSCAASGIDLSTYAMGWVREAPGKGLEWVGLIHRSGRTYYATWAKGRFTISKDSSKNTLYLQMNSLRAEDTAVYYCTRSYPDYSATASIWGQGTTVTVSS VL: DIQVTQSPSSLSASVGDRVTITCQASENIANALAWYQKKPGKPPKFLIYGASNLASGVPSRFSGSGSGTDFTFTISSLQPEDIATYYCQQAYYGNSFVEGTFGGGTKVEIK , state its recorded pEC50.
7.94

---
# pEC50 lookup, item anti-CCR8 1889 S12P.I29V.E95dS.T57D.Y58A (PVSDA) (antibody, V domains shown, It is put together from the printed names of the heavy and light chain variants; also called I29V.E95dS.Y57D.Y58A) VH: EVQLLESGGGLVQPGGSLRLSCAASGIDLSTYAMGWVREAPGKGLEWVGLIHRSGRDAYATWAKGRFTISKDSSKNTLYLQMNSLRAEDTAVYYCTRSYPDYSATASIWGQGTTVTVSS VL: DIQVTQSPSSLPASVGDRVTITCQASENVANALAWYQKKPGKPPKFLIYGASNLASGVPSRFSGSGSGTDFTFTISSLQPEDIATYYCQQAYYGNSFVSGTFGGGTKVEIK
8.65
